Data export: pIC50 values recorded with Acetylcholinesterase (Electrophorus electricus).
Sequence (O42275 whole entry): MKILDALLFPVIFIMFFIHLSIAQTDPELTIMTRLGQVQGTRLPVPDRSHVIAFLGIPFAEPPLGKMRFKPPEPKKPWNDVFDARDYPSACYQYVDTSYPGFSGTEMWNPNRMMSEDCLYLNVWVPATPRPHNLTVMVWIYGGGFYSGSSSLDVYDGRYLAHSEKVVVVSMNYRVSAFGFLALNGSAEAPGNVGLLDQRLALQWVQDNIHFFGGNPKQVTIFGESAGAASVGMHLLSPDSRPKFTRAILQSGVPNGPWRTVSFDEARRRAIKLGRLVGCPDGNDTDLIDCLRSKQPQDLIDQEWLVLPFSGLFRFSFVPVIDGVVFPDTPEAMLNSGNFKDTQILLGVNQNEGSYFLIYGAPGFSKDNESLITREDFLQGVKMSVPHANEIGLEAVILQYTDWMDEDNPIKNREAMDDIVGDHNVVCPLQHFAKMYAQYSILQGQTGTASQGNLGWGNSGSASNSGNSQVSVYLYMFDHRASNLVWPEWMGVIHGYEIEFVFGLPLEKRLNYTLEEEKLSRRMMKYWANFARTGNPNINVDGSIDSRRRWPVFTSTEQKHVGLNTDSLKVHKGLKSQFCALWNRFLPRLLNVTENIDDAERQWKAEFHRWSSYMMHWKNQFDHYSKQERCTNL
Answers are plain numbers, as −log10 of the molar value.

Below: 5 molecules and their reported pIC50.
O=C(NCCC1CCN(Cc2cccc([N+](=O)[O-])c2)CC1)c1ccc2c(c1)[nH]c1c(NC(=O)C3CC3)nccc12 = 5.80
O=C(NCC1CCN(Cc2c(Cl)cccc2Cl)CC1)c1ccc2c(c1)[nH]c1c(NC(=O)C3CC3)nccc12 = 6.47
Cc1ccc(CN2CCC(CCNC(=O)c3ccc4c(c3)[nH]c3c(NC(=O)C5CC5)nccc34)CC2)cc1 = 5.56
O=C(NCC1CCN(Cc2cccc(F)c2)CC1)c1ccc2c(c1)[nH]c1c(NC(=O)C3CC3)nccc12 = 5.65
O=C(NC1CCN(Cc2ccc(C(F)(F)F)cc2)CC1)c1ccc2c(c1)[nH]c1c(NC(=O)C3CC3)nccc12 = 4.86

Dear colleague, could you please provide pIC50 for the molecules listed below?
1. O=C(NCCC1CCN(Cc2ccc(C(F)(F)F)cc2)CC1)c1ccc2c(c1)[nH]c1c(NC(=O)C3CC3)nccc12
2. O=C(NC1CCN(Cc2cccc([N+](=O)[O-])c2)CC1)c1ccc2c(c1)[nH]c1c(NC(=O)C3CC3)nccc12
3. O=C(NCCC1CCN(Cc2ccccc2)CC1)c1ccc2c(c1)[nH]c1c(NC(=O)C3CC3)nccc12
4. O=C(NCC1CCN(Cc2ccc(C(F)(F)F)cc2)CC1)c1ccc2c(c1)[nH]c1c(NC(=O)C3CC3)nccc12
5. O=C(NCC1CCN(Cc2ccccc2F)CC1)c1ccc2c(c1)[nH]c1c(NC(=O)C3CC3)nccc12
6. O=C(NC1CCN(Cc2ccc(Cl)cc2)CC1)c1ccc2c(c1)[nH]c1c(NC(=O)C3CC3)nccc12
7. O=C(NC1CCN(Cc2ccc(F)cc2)CC1)c1ccc2c(c1)[nH]c1c(NC(=O)C3CC3)nccc12
8. O=C(NCC1CCN(Cc2cc(F)cc(F)c2)CC1)c1ccc2c(c1)[nH]c1c(NC(=O)C3CC3)nccc12

Reply:
4.51
5.56
6.11
4.98
6.08
4.72
5.67
5.30

Dear colleague, could you please provide pIC50 for the molecules listed below?
1. O=C(NC1CCN(Cc2cc(F)cc(F)c2)CC1)c1ccc2c(c1)[nH]c1c(NC(=O)C3CC3)nccc12
2. O=C(NCCC1CCN(Cc2cccc(F)c2)CC1)c1ccc2c(c1)[nH]c1c(NC(=O)C3CC3)nccc12
3. O=C(NCCC1CCN(Cc2ccc(F)cc2)CC1)c1ccc2c(c1)[nH]c1c(NC(=O)C3CC3)nccc12
4. O=C(NCCC1CCN(Cc2c(Cl)cccc2Cl)CC1)c1ccc2c(c1)[nH]c1c(NC(=O)C3CC3)nccc12
5. O=C(NCC1CCN(Cc2ccc(F)cc2)CC1)c1ccc2c(c1)[nH]c1c(NC(=O)C3CC3)nccc12
6. O=C(NC1CCN(Cc2ccccc2F)CC1)c1ccc2c(c1)[nH]c1c(NC(=O)C3CC3)nccc12

Reply:
4.48
6.02
5.92
6.05
5.51
5.58

Dear colleague, could you please provide pIC50 for the molecules listed below?
1. O=C(NC1CCN(Cc2ccccc2)CC1)c1ccc2c(c1)[nH]c1c(NC(=O)C3CC3)nccc12
2. O=C(NC1CCN(Cc2c(Cl)cccc2Cl)CC1)c1ccc2c(c1)[nH]c1c(NC(=O)C3CC3)nccc12
3. O=C(NCC1CCN(Cc2cccc([N+](=O)[O-])c2)CC1)c1ccc2c(c1)[nH]c1c(NC(=O)C3CC3)nccc12
4. Cc1ccc(CN2CCC(NC(=O)c3ccc4c(c3)[nH]c3c(NC(=O)C5CC5)nccc34)CC2)cc1
5. O=C(NCCC1CCN(Cc2ccccc2F)CC1)c1ccc2c(c1)[nH]c1c(NC(=O)C3CC3)nccc12
6. O=C(NCCC1CCN(Cc2ccc(Cl)cc2)CC1)c1ccc2c(c1)[nH]c1c(NC(=O)C3CC3)nccc12
7. O=C(NCC1CCN(Cc2ccccc2)CC1)c1ccc2c(c1)[nH]c1c(NC(=O)C3CC3)nccc12

Reply:
[5.63, 5.70, 5.69, 5.07, 6.57, 4.83, 5.76]

Per the records, this molecule ( O=C(NC1CCN(Cc2cccc(F)c2)CC1)c1ccc2c(c1)[nH]c1c(NC(=O)C3CC3)nccc12 ) has pIC50 equal to 5.65

====

Record form. Attribute: Ratio IC50. Fill in for each entry.
assay.text: Selectivity index, ratio of IC50 for equine serum BChE to IC50 for electric eel AChE

Below: 7 molecules and their reported Ratio IC50.
O=C(NCCC1CCN(Cc2cccc([N+](=O)[O-])c2)CC1)c1ccc2c(c1)[nH]c1c(NC(=O)C3CC3)nccc12 = > 31.9
O=C(NC1CCN(Cc2cc(F)cc(F)c2)CC1)c1ccc2c(c1)[nH]c1c(NC(=O)C3CC3)nccc12 = > 1.49
O=C(NCC1CCN(Cc2ccc(C(F)(F)F)cc2)CC1)c1ccc2c(c1)[nH]c1c(NC(=O)C3CC3)nccc12 = > 4.81
O=C(NC1CCN(Cc2cccc(F)c2)CC1)c1ccc2c(c1)[nH]c1c(NC(=O)C3CC3)nccc12 = > 22.5
O=C(NCC1CCN(Cc2ccc(Cl)cc2)CC1)c1ccc2c(c1)[nH]c1c(NC(=O)C3CC3)nccc12 = > 2.55
O=C(NCC1CCN(Cc2cccc(F)c2)CC1)c1ccc2c(c1)[nH]c1c(NC(=O)C3CC3)nccc12 = > 22.3
O=C(NCCC1CCN(Cc2cccc(F)c2)CC1)c1ccc2c(c1)[nH]c1c(NC(=O)C3CC3)nccc12 = > 50.1

Per the records, this molecule ( O=C(NCC1CCN(Cc2ccccc2)CC1)c1ccc2c(c1)[nH]c1c(NC(=O)C3CC3)nccc12 ) has Ratio IC50 equal to 48.1

====

Record form. Attribute: inhibition. Fill in for each entry.
target.of.assay: UniProt:P49841
Sequence (P49841 whole entry, looked up): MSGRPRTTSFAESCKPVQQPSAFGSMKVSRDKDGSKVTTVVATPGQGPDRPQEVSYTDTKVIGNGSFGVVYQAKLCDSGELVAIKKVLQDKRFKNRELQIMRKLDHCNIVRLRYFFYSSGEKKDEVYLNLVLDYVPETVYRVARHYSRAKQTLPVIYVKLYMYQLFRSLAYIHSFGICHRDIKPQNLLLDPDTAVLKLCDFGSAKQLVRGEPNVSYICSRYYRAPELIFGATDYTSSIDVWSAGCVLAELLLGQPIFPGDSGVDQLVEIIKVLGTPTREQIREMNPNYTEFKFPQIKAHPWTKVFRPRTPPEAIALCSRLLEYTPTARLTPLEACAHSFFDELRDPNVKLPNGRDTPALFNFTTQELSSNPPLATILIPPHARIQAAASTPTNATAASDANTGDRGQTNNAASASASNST
assay.text: Inhibition of GSK3-beta (unknown origin) at 10 uM incubated for 60 mins by ATP-Glo luminescent assay
Numbers only, in %.

Below: 8 compounds and their reported inhibition.
O=C(NCC1CCN(Cc2ccc(F)cc2)CC1)c1ccc2c(c1)[nH]c1c(NC(=O)C3CC3)nccc12 = 40.9
O=C(NCC1CCN(Cc2ccccc2F)CC1)c1ccc2c(c1)[nH]c1c(NC(=O)C3CC3)nccc12 = 42.1
O=C(NCC1CCN(Cc2ccc(C(F)(F)F)cc2)CC1)c1ccc2c(c1)[nH]c1c(NC(=O)C3CC3)nccc12 = 59.5
O=C(NCCC1CCN(Cc2cc(F)cc(F)c2)CC1)c1ccc2c(c1)[nH]c1c(NC(=O)C3CC3)nccc12 = 2.71
O=C(NC1CCN(Cc2c(Cl)cccc2Cl)CC1)c1ccc2c(c1)[nH]c1c(NC(=O)C3CC3)nccc12 = 21.9
O=C(NCCC1CCN(Cc2ccc(Cl)cc2)CC1)c1ccc2c(c1)[nH]c1c(NC(=O)C3CC3)nccc12 = 84.3
Cc1ccc(CN2CCC(CCNC(=O)c3ccc4c(c3)[nH]c3c(NC(=O)C5CC5)nccc34)CC2)cc1 = 62.7
O=C(NCC1CCN(Cc2ccccc2)CC1)c1ccc2c(c1)[nH]c1c(NC(=O)C3CC3)nccc12 = 20.8

Dear colleague, could you please provide inhibition for the compounds listed below?
1. O=C(NCCC1CCN(Cc2ccc(C(F)(F)F)cc2)CC1)c1ccc2c(c1)[nH]c1c(NC(=O)C3CC3)nccc12
2. O=C(NC1CCN(Cc2cccc([N+](=O)[O-])c2)CC1)c1ccc2c(c1)[nH]c1c(NC(=O)C3CC3)nccc12
3. Cc1ccc(CN2CCC(NC(=O)c3ccc4c(c3)[nH]c3c(NC(=O)C5CC5)nccc34)CC2)cc1
4. O=C(NCCC1CCN(Cc2c(Cl)cccc2Cl)CC1)c1ccc2c(c1)[nH]c1c(NC(=O)C3CC3)nccc12

Reply:
1. 73.8
2. 78
3. 10.5
4. 52.1

====

target.of.assay: UniProt P81908
Sequence (P81908 whole entry): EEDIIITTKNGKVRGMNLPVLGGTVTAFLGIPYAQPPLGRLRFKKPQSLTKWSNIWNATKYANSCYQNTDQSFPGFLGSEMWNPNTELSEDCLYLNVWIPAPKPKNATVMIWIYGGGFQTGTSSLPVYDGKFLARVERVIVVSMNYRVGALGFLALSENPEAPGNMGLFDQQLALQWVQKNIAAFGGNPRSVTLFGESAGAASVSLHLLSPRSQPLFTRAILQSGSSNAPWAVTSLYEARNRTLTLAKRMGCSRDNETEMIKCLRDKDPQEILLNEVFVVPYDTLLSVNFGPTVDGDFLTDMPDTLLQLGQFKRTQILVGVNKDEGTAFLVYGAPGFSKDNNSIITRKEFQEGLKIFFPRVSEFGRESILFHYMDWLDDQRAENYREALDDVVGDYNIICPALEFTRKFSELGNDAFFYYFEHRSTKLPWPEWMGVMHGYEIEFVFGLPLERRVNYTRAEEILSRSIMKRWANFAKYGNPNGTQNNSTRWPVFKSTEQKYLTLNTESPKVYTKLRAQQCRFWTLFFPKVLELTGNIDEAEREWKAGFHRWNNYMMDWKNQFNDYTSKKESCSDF
assay.text: Inhibition of equine serum BChE at 50 uM using butyrylthiocholine iodide as substrate preincubated with enzyme for 20 mins followed by substrate addition and measured after 20 mins by Ellman's method
Assay type: cell-free
condition: time 40.0 min
test.readout: inhibition (%)
One number for each entry, in %.

O=C(NCCC1CCN(Cc2cccc([N+](=O)[O-])c2)CC1)c1ccc2c(c1)[nH]c1c(NC(=O)C3CC3)nccc12 = 21.5
O=C(NC1CCN(Cc2ccccc2F)CC1)c1ccc2c(c1)[nH]c1c(NC(=O)C3CC3)nccc12 = 30.8
Cc1ccc(CN2CCC(CCNC(=O)c3ccc4c(c3)[nH]c3c(NC(=O)C5CC5)nccc34)CC2)cc1 = 44.3
O=C(NCC1CCN(Cc2ccc(F)cc2)CC1)c1ccc2c(c1)[nH]c1c(NC(=O)C3CC3)nccc12 = 39.7
O=C(NC1CCN(Cc2ccccc2)CC1)c1ccc2c(c1)[nH]c1c(NC(=O)C3CC3)nccc12 = 52.6

Dear colleague, could you please provide inhibition for the molecules listed below?
1. Cc1ccc(CN2CCC(NC(=O)c3ccc4c(c3)[nH]c3c(NC(=O)C5CC5)nccc34)CC2)cc1
2. COc1ccc2c(c1)[nH]c1c(C)nccc12 [HARMINE]

Reply:
[23, 74.1]

Per the records, this molecule ( O=C(NCCC1CCN(Cc2cccc(F)c2)CC1)c1ccc2c(c1)[nH]c1c(NC(=O)C3CC3)nccc12 ) has inhibition equal to 65.4
